Assay Procedure: gradient 5% acetonitrile 3 min, to 50% in 2 min, to 85% in 15 min, held 3 min, 100 µL/min
Test Settings: column: Zorbax Extend-C18 2.1 x 50 mm; eluents: water / acetonitrile, 0.1% formic acid
Classification scheme (RP-LC retention time): Low = under 700 s, Medium = from 700 s up to 900 s, High = 900 s and over

Compound	Classification
CC(C)CC(=O)N1C[C@H](c2nc(-c3cccnc3)no2)[C@@H](C)C1	Medium
Cc1cccc(-c2noc(C3CC(=O)N(c4ccc5c(c4)OCO5)C3)n2)c1 (stereo not given)	High
Brc1ccc(-c2nnc(SCCCCOc3ccccc3)o2)cc1	High
COc1ccc(-c2cn3cccnc3n2)cc1NC(=O)c1cccc(Cl)c1	Medium
Cn1cnc(S(=O)(=O)N2CCC(CCOc3ccccc3F)C2)c1 (stereo not given)	Medium
COc1ccc(Nc2nc(N3CCN(c4ncccn4)CC3)nc3c2C(=O)CC(C)(C)C3)cc1	High
CCc1ccc(-n2nnc(C(=O)N3CCC4(CC3)OCCO4)c2-c2ccncc2)cc1	Medium
Cc1cc(NC(=O)c2[nH]c(C)c(S(=O)(=O)N3CCCCC3)c2C)ccc1Br	High
COC(=O)c1cc2n(n1)CC(C)(C(=O)NC1CCCCC1)N(c1ccc(F)cc1)C2=O (stereo not given)	Medium
CS(=O)(=O)Nc1cccc(NC(=O)Cn2cccn2)c1	High
COc1ccc(N2CCn3c(SCC(=O)Nc4ccccc4C(F)(F)F)nnc32)cc1	Medium
CC(C)(C)C(=O)N1C[C@@H](CO)[C@H](c2nc(-c3ccncc3)no2)C1	Low
COc1cc2nc(SCC(=O)Nc3cc(C)[nH]n3)n3nc(C)nc3c2cc1OC	Low
COC(=O)c1ccccc1NC(=O)c1nnn(-c2cc(C)ccc2Cl)c1C	High
O=C(NCC1CCCO1)c1cc(=O)n(Cc2ccc(Cl)cc2)c2ccccc12 (stereo not given)	Medium
COCc1noc([C@@H]2CC(F)(F)CN2C(=O)c2cn(C)cn2)n1	Low
Cc1cc(C(=O)NCc2ccccn2)c2cc(Br)ccc2n1	Low
CCS(=O)(=O)N1CCC(c2ccccc2)C1 (stereo not given)	Medium
O=C(Nc1ccc(N2CCOCC2)cc1)c1cccs1	Low
O=C(c1cn(-c2cc(Nc3ccccc3)ncn2)cn1)N1CCN(c2ncccn2)CC1	Medium
CCN1C(=O)c2cc(S(=O)(=O)Nc3cc(F)ccc3C)ccc2Oc2cccnc21	High
NC(=O)C1CCN(C(=O)NC2CCCCC2)CC1	Low
CCSc1nc2ccc(NS(=O)(=O)c3cccc(Cl)c3)cc2s1	High
CCc1ccc(-c2cc3c(=O)n(Cc4noc(CN5CCCC(C)C5)n4)ccn3n2)cc1 (stereo not given)	Medium
Cc1nn(-c2ccc(C(=O)NCc3ccco3)cc2)cc1NC(=O)C(C)C	Medium
CSc1ccc(CNC(=O)CC2CCN(C(=O)c3[nH]c(C)cc3C)CC2)cc1	Medium
COCc1noc(CC2CCOC3(CCN(C(=O)C4(c5ccccc5)CC4)CC3)C2)n1 (stereo not given)	Medium
Cc1ccc(-c2cc(C(=O)N3CCC(NC(=O)C4CCCCC4)CC3)[nH]n2)c(C)c1	Medium
COCc1noc([C@@H]2CC(F)(F)CN2C(=O)CC(C)(C)C)n1	Medium
CCN(C(=O)c1ccc(C)cc1)c1nc(-c2ccc(C)cc2)cs1	High
Cc1ccc(NC(=O)C2CCCN(C(=O)C3Sc4ccccc4NC3=O)C2)cc1C (stereo not given)	Medium
O=c1nc(NCc2ccccc2)c2ccccc2[nH]1	Low
O=C(CN1C(=O)CCc2cc(Br)ccc21)NCc1ccccc1	Medium
CCc1noc(C2(NC(=O)c3ccc(C(C)(C)C)cc3)CCCCC2)n1	High
